Attribution: PubChem BioAssay (NCI)

# System: SF-268 CNS
# measurement_notes: NCI tumour cell line growth inhibition, 48 h
recorded_metric: TGI

Please review the following examples before continuing.
compound	TGI
CN1C2CCC1CC(C)(O)C2 (stereo unspecified)	> 100 µM
CC(C)NC(=O)OCCN=c1c2ccccc2ccc2ccccc12	> 100 µM
O=c1c(C(c2ccc(Cl)cc2)c2c(O)c3ccccc3n(-c3ccccc3)c2=O)c(O)c2ccccc2n1-c1ccccc1	> 100 µM

Below: the item to evaluate.
Name the reported TGI value associated with the compound `COc1c(CCl)cc(-c2cc(=O)c3ccccc3s2)cc1CCl`
> 100 µM

---

# Tested on: T-47D breast
# measurement_notes: NCI tumour cell line growth inhibition, 48 h
This section presents molecules with their documented GI50 values.

Please review the following examples before continuing.
molecule	assay_result
Cc1ncc(CCCN(C)C)cc1Nc1ncc2c(n1)-c1ccc(C(F)(F)F)cc1NC(=S)C2	814 nM
C#Cc1c(I)n(C2OC(CO[Si](C)(C)C(C)(C)C)C3OC(C)(C)OC32)c(=O)[nH]c1=O (centres undefined)	5420 nM
C[C@H](O)C(=O)N1CCC(CCn2c(Sc3cc4c(cc3Br)OCO4)nc3c(N)ncnc32)CC1	2150 nM

Below: the item to evaluate.
Name the reported GI50 value associated with the molecule `CC(C)C[C@H](NC(=O)/C=C/Cn1ccc2ccccc2c1=O)B(O)O`
2680 nM

---

# System: SF-295 CNS
# measurement_notes: NCI tumour cell line growth inhibition, 48 h
recorded_metric: TGI

compound	assay_result
C=C([C@@]1(O)C[C@H]2[C@H](CCC2(OC)OC)[C@@H]2c3ccccc3O[C@@H]21)[Si](C)(C)C	> 100 µM
CCC1(C)C=Cc2c(cc(O)c3c(=O)c4ccccc4n(C)c23)O1 (stereo not drawn)	> 10 µM
[N-]=[N+]=NC1=C(c2ccccn2)C(=O)c2cccc3cccc1c23	> 100 µM
CC(=O)NC1c2ccccc2C(C)(C)C12CCC1(CC2)OCCO1 (stereo not drawn)	> 100 µM
O=c1oc2ccc([N+](=O)[O-])cc2c(Nc2ccc3c(c2)Oc2ccccc2O3)c1[N+](=O)[O-]	> 100 µM
O=NN(CCCl)C(=O)NC1CCC(O)CC1 (stereo not drawn)	> 80.2 µM
CN1C2CCC1CC(C)(O)C2 (stereo not drawn)	> 100 µM
C=CCOc1ccc(C2(O)c3ccccc3C3=NCCCN32)cc1 (stereo not drawn)	> 100 µM
COc1cc2[nH]c(C(=O)c3cc(OC)c(OC)c(OC)c3)c(N)c2cc1C#CC1CC1	> 100 µM
Clc1ccc2c(c1)-c1c3c(nn1-c1ccccc1)-c1ccccc1SC3O2 (stereo not drawn)	> 100 µM

Name the reported TGI value associated with the compound `C=CCc1ccc(Oc2cc(CC=C)c3c(c2O)O[C@@H](CO)[C@H]3c2ccc(O)c(-c3cc(CC=C)ccc3O)c2)cc1`
> 100 µM

Name the reported TGI value associated with the compound `Clc1ccc(C=Nc2ccc3c(c2)Cc2ccccc2-3)c(Cl)c1`
> 100 µM

Name the reported TGI value associated with the compound `O=C(O)/C=c1/c2ccccc2n2nc3ccccc3c12`
> 100 µM

---

This section presents compounds with their documented TGI values.
# System: M14 melanoma
# measurement_notes: NCI tumour cell line growth inhibition, 48 h

Please review the following examples before continuing.
CCOC(=O)c1ccc(C)c(N=NN(C)C)c1 > 100 µM
CN1COCc2c1ccc1cc3ccc4c(c3nc21)COCN4S(C)(=O)=O > 100 µM

Below: the item to evaluate.
Name the reported TGI value associated with the compound `Cc1nc2sc3ccccc3n2c(=O)c1N=Nc1ccc(Cl)cc1`
> 100 µM

---

This section presents compounds with their documented TGI values.
# Test system: UACC-62 melanoma
# measurement_notes: NCI tumour cell line growth inhibition, 48 h

Please review the following examples before continuing.
compound	test_system	TGI
O=C(NCO)NCOCn1c(=O)n(CO)c(=O)n(CO)c1=O	UACC-62 melanoma	36.8 µM
Cn1c(COC(=O)Nc2ccccc2)c(COC(=O)Nc2ccccc2)c2ccc3cc(Cl)c(Cl)cc3c21	UACC-62 melanoma	40.7 µM
C=C(Cl)C(C)(Cl)CCC(Br)C(C)(C)Cl (stereo not drawn)	UACC-62 melanoma	30.9 µM
O=C(Nc1c(Cl)cc([N+](=O)[O-])cc1Cl)C(=O)C(C1OC(=O)c2ccccc21)[N+](=O)[O-] (stereo not drawn)	UACC-62 melanoma	> 100 µM
Oc1cccc(-c2nc3cc(F)ccc3s2)c1	UACC-62 melanoma	35.1 µM
CC1(C)[C@@H](OC(N)=O)[C@H]2O[C@H]2[C@]2(C=O)[C@H]3CC[C@]4(C)[C@@H](c5ccc(=O)oc5)[C@@H](Cl)C[C@]4(O)C3=CC[C@@H]12	UACC-62 melanoma	0.0172 µM

Name the reported TGI value associated with the compound `N#Cc1c(Cl)cc(Cl)n2c1nc1ccccc12`
29.8 µM

Name the reported TGI value associated with the compound C=C1CCC(CC[C@@H]2CC[C@]3(OC2)O[C@@]2(O)CC[C@]3(C)OC2(C)C)C(C)(C)[C@H]1C/C=C1/C(=O)OC[C@@H]1O (stereo partly drawn)
3.8 µM

Name the reported TGI value associated with the compound CC1=C(C(=O)Nc2ccc(F)c(Cl)c2)C(c2cccc(O)c2)NC(=O)N1 (stereo not drawn)
> 100 µM

Name the reported TGI value associated with the compound CCCCCCCCCCCC(=O)OCC1OC(OC)C(NC(=O)N(CCCl)N=O)C(O)C1O (stereo not drawn)
15.7 µM

Name the reported TGI value associated with the compound `CCC/C(Cl)=N\OC(=O)Nc1ccc(OC(F)(F)F)cc1`
48.7 µM

Name the reported TGI value associated with the compound `C=C1CN2CC(=C)CN(C1)CS(=O)(=O)N1CC(=C)CN(CC(=C)C1)S(=O)(=O)N1CC(=C)CN(CC(=C)C1)S(=O)(=O)C2`
> 100 µM

Name the reported TGI value associated with the compound OCc1ccc(C2CC(c3ccco3)=NN2c2ccccc2)o1 (stereo not drawn)
> 100 µM

---

# Tested on: BT-549 breast
# measurement_notes: NCI tumour cell line growth inhibition, 48 h; in the data active = GI50 below about 0.43 µM; inactive = the rest
Allowed answers: t (active), f (inactive)

Known results for molecules:
CCCCON(OC(=O)c1ccc2ccc3cccc4ccc1c2c34)C(C)=O f
CN(C)CCN1C(=O)c2ccc3c4c(ccc(c24)C1=O)C(=O)N(CCN=C=S)C3=O t
Cc1ncc(CCCN(C)C)cc1Nc1ncc2c(n1)-c1ccc(C(F)(F)F)cc1NC(=S)C2 f
COc1ccc(C(=O)COc2ccc(/C=C3\COc4ccc(OC)cc4C3=O)cc2)cc1 f

Just curious, what result did `CC(C)(C[C@H]1CN(S(=O)(=O)c2cccc(C(F)(F)F)c2)c2cc(-c3cc(F)cc(OC(F)F)c3)ccc2O1)C(=O)O` get here?
f

Just curious, what result did `Nc1ccc2cc3ccc(N)cc3nc2c1` get here?
f

Just curious, what result did `CCSc1nc(SCC)c2cn[nH]c2n1` get here?
f

---

This section presents molecules with their documented TGI values.
# Tested on: EKVX NSCLC
# measurement_notes: NCI tumour cell line growth inhibition, 48 h
Just the number in µM, nothing appended.

Name the reported TGI value associated with the molecule `COc1cccc(C#Cc2ccccc2C#CCCCCO)c1`
24.3

Name the reported TGI value associated with the molecule `CC(C)(C[C@H]1CN(S(=O)(=O)c2cccc(C(F)(F)F)c2)c2cc(-c3cc(F)cc(OC(F)F)c3)ccc2O1)C(=O)O`
19.3

---

# Tested on: T-47D breast
# measurement_notes: NCI tumour cell line growth inhibition, 48 h
recorded_metric: TGI

Please review the following examples before continuing.
molecule	test_system	assay_result
Cn1c(=O)c(Cc2ccccc2F)cc2cnc(NC3CCOCC3)nc21	T-47D breast	> 25 µM
O=C(O)/C=c1/c2ccccc2n2nc3ccccc3c12	T-47D breast	> 100 µM

Name the reported TGI value associated with the molecule COc1ccc2c(c1)CCN1CCc3ccccc3CC21 (stereo unspecified)
> 100 µM

Name the reported TGI value associated with the molecule `CCCCON(OC(=O)c1ccc2ccc3cccc4ccc1c2c34)C(C)=O`
> 100 µM

Name the reported TGI value associated with the molecule `COc1cc2[nH]c(C(=O)c3cc(OC)c(OC)c(OC)c3)c(N)c2cc1C#CC1CC1`
> 100 µM

Name the reported TGI value associated with the molecule `C=C([C@@]1(O)C[C@H]2[C@H](CCC2(OC)OC)[C@@H]2c3ccccc3O[C@@H]21)[Si](C)(C)C`
> 100 µM

Name the reported TGI value associated with the molecule `CN(C)C(=O)[C@H](O)[C@H](Cc1ccccc1)NC(=O)c1cc2cc(Cl)ccc2[nH]1`
> 96.7 µM

Name the reported TGI value associated with the molecule Cn1c2ccccc2c(=O)c2cccc(C(=O)NC(CCCN=C(N)N)C(=O)O)c21 (stereo unspecified)
> 100 µM

Name the reported TGI value associated with the molecule `Nc1ccc(S(=O)(=O)Nc2nccs2)cc1`
> 100 µM

Name the reported TGI value associated with the molecule `COc1cc(C(=O)c2cc(C)c3[nH]c4ccc(C)cc4c3c2C)cc(OC)c1OC`
> 100 µM

Name the reported TGI value associated with the molecule `O=C(O)c1ccc(OCc2nc3cc(C(F)(F)F)ccc3nc2-c2ccccc2)cc1`
> 100 µM
